This section presents binders with their documented Jurkat Cell Binding (FOI) values.
target.of.assay: T1, human CD3 expressed on cells (human, UniProt P07766 23-207; P04234 22-171; P09693 23-182)
T1 construct: whole, on cells; CD3 complex on Jurkat cells and on human primary T cells
test.protocol: flow cytometry, 25 nM
reported.endpoint: Jurkat Cell Binding (FOI)

[
  {
    "binder": "mAb 163 (antibody, V domains shown) VH: EVQLVESGGGLVKTGGSLRLSCVASGFSFKKAWMNWVRQVPGKGLEWVGRIKRNTDGGTADYAAPVKGRFTLSRDDSKKTLFLQMNSLKTEDTAVYYCTTLDSSSYYVGYYYMDVWGKGTTVTVSS VL: DIQMTQSPSSVSASVGDRVIITCRASQDINNWLAWYQQKPGKAPKLLIYTASSLQSGVPSRFSGSGSGTDFTLTIGSLQPEDFATYYCQQAHSLPITFGQGTRLEIK",
    "unit.of.measurement": "FOI",
    "observed.value": 118
  },
  {
    "binder": "mAb 162 (antibody, V domains shown) VH: EVQLVESGGGLVQPGRSLRLSCAASGFTFDNYAMHWVRQAPGKGLEWVSGISWNSGSIGYADSVKGRFTISRDNAKNSLYLELNSLRAEDTALYYCAKDSSGYGYYYNYYMDVWGKGTTVTVSS VL: EIVMTQSPATLSVSPGERATLSCRASQSVRSNLAWYQQKPGQAPRLLIYGASTRATGIPAKFSGSGSGTEFTLTISSLQSEDFAVYYCQYYYNWPHFGQGTRLEIK",
    "unit.of.measurement": "FOI",
    "observed.value": 111
  },
  {
    "binder": "mAb 155 (antibody, V domains shown) VH: EVQLVESGGGLVKTGGSLRLSCVASGFSFKKAWMNWVRQAPGKGLEWVGRIKRNTDGGTADYAAPVKGRFTLSRDDSKKTLFLQMNSLKTEDTAVYYCTTLDSSSYYVGYYYMDVWGKGTTVTVSS VL: DIQMTQSPSSVSASVGDRVIITCRASQDINNWLAWYQQKPGKAPKLLIYTASSLQSGVPSRFSGSGSGTDFTLTIGSLQPEDFATYYCQQAHSLPISFGQGTRLDIK",
    "unit.of.measurement": "FOI",
    "observed.value": 163
  },
  {
    "binder": "mAb 97 (antibody, V domains shown) VH: QGQLVESGGGVVQPGRSLRLSCAASGFTFRGYGMHWVRQAPGKGLEWVAIIYYDGKNKYYADSVKGRFTISRDNSKNTLYLQMNNLRVEDTAVYYCARGGGYNWFDPWGQGTLVTVSS VL: DIQMTQSPSSLSASIGDRVTITCRASQSISNYLNWYQQKPGKAPKLLIYSASSLQSGVPSRFSGSGSGTDFTLTISNLQPEDFAIYYCQRSYSPPFTFGPGTKLDIR",
    "unit.of.measurement": "FOI",
    "observed.value": 192
  },
  {
    "binder": "mAb 66 (antibody, V domains shown) VH: QVQLVQSGAEVKKPGASVKVSCKASGYTVTGYYMHWVRQAPGQGLEWMGWINPNSGGTNFAQNFQGRVTMTRDTSISTFYMDLSRLRSDDTAVYYCARGGAPVSYWFFDLWGRGTLVTVSS VL: DIQMTQSPSSLSASVGDRVTITCRASQSISRYLNWYQQKPGKAPKVLIYNTSSLKSGVPSRFSGSGSGTDFTLTISSLQPEDFATLYCQQSHSTPFTFGPGTKVDIK",
    "unit.of.measurement": "FOI",
    "observed.value": 172
  }
]
